Recorded IC50 values for a group of compounds are listed next.
- Study system: CXCR4 (Homo sapiens)
- Construct: were determined with CCRF-CEM cells expressing endogenous CXCR4; endogenous in cells; host or cells: CCRF-CEM (human acute lymphoblastic leukemia) whole cells
- Sequence (P61073 whole entry): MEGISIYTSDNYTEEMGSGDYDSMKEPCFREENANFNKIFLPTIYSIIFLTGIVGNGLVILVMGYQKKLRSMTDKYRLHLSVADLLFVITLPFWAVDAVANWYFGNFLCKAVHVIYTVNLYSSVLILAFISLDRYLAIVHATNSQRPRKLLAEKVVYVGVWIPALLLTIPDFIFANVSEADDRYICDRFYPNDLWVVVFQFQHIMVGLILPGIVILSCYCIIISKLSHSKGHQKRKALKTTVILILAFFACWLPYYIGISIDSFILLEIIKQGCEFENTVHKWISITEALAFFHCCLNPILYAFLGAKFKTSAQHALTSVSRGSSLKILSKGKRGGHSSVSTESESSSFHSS
- Experimental details: Competitive binding assay: displacement of 125I-SDF-1α from CXCR4-expressing CCRF-CEM cells
- Reported conditions: CCRF-CEM 0.5 × 10^6 cells, 125I-SDF-1α 1 kBq, 0.25 nM SDF-1α, one hour, room temperature per method (b54 says 37 °C); mean ± SD, n = 3
Your answer is read as nM, so omit the unit and give the number.

stdin: Identify the measured IC50 of CC(C)NCCCC[C@@H]1NC(=O)[C@H](Cc2ccc(O)cc2)NC(=O)[C@H](Cc2ccccc2)NC(=O)CC[C@H](C(=O)N[C@@H](CCCCNC(C)C)C(=O)N[C@@H](CSC2CC(=O)N(CCNC(=O)CN3CCN(CC(=O)O)CCN(CC(=O)O)CCN(CC(=O)O)CC3)C2=O)C(N)=O)NC(=O)CNC(=O)[C@H](Cc2ccc3ccccc3c2)NC(=O)[C@@H](CCCNC(=N)N)NC1=O (stereo partly drawn) [Y-FRM001] for CXCR4 (Homo sapiens).
stdout: 0.89

stdin: Lab note: need IC50 with CXCR4 (Homo sapiens) for entry CC(C)NCCCC[C@@H]1NC(=O)[C@H](Cc2ccc(O)cc2)NC(=O)[C@H](Cc2ccccc2)NC(=O)CC[C@H](C(=O)N[C@@H](CCCCNC(C)C)C(=O)N[C@@H](CSC2CC(=O)N(CCNC(=O)CN3CCN(CC(=O)O)CCN(CC(=O)O)CCN(CC(=O)O)CC3)C2=O)C(N)=O)NC(=O)CNC(=O)[C@H](Cc2ccc3ccccc3c2)NC(=O)[C@@H](CCCNC(=N)N)NC1=O (stereo partly drawn) [FRM001] , please look it up.
stdout: 1.78

stdin: Give IC50 (CXCR4 (Homo sapiens)) of the following compound: CC(C)NCCCC[C@@H]1NC(=O)[C@H](Cc2ccc(O)cc2)NC(=O)[C@H](Cc2ccccc2)NC(=O)CC[C@H](C(=O)N[C@@H](CCCCNC(C)C)C(=O)N[C@@H](CSC2CC(=O)N(CCNC(=O)CN3CCN(CC(=O)O)CCN(CC(=O)O)CCN(CC(=O)O)CC3)C2=O)C(N)=O)NC(=O)CNC(=O)[C@H](Cc2ccc3ccccc3c2)NC(=O)[C@@H](CCCNC(=N)N)NC1=O (stereo partly drawn) [Lu-FRM001]
stdout: 2.15

* * *

# IC50 listing for each entry below
- Study system: CXCR4 (Homo sapiens)
- Construct: were determined with CCRF-CEM cells expressing endogenous CXCR4; endogenous in cells
- Experimental details: Competitive binding assay: displacement of 125I-SDF-1α from CXCR4-expressing CCRF-CEM cells
- Reported conditions: CCRF-CEM 0.5 × 10^6 cells, 125I-SDF-1α 1 kBq, 0.25 nM SDF-1α, one hour, room temperature per method (b54 says 37 °C); mean ± SD, n = 3
Where a SMILES comes first, the peptide text is derived from it. Bridges are numbered along the chain shown (N, C = ends). [ ]: non-standard residue; d: D form. 2Nal = N[C@@H](Cc1ccc2ccccc2c1)C(=O)O; Lys(iPr) = CC(C)NCCCC[C@H](N)C(=O)O
The answer is to be given in nM; state only the numeric part.

# Compound, Study system, IC50 [nM]
data = [
    ("CC(C)NCCCC[C@@H]1NC(=O)[C@H](Cc2ccc(O)cc2)NC(=O)[C@H](Cc2ccccc2)NC(=O)CC[C@H](C(=O)N[C@@H](CCCCNC(C)C)C(=O)N[C@@H](CSC2CC(=O)N(CCNC(=O)CN3CCN(CC(=O)O)CCN(CC(=O)O)CCN(CC(=O)O)CC3)C2=O)C(N)=O)NC(=O)CNC(=O)[C@H](Cc2ccc3ccccc3c2)NC(=O)[C@@H](CCCNC(=N)N)NC1=O (stereo partly drawn) [Ga-FRM001]", "CXCR4 (Homo sapiens)", 2.26),
    ("c1ccc(CNCc2ccc(CN3CCCNCCNCCCNCC3)cc2)nc1 [AMD3465, reference compound]", "CXCR4 (Homo sapiens)", 12.8),
]

// switching to the query compound
stdin: Sample CC(C)NCCCC[C@H](NC(=O)[C@H]1CCC(=O)N[C@@H](Cc2ccccc2)C(=O)N[C@@H](Cc2ccc(O)cc2)C(=O)N[C@@H](CCCCNC(C)C)C(=O)N[C@H](CCCNC(=N)N)C(=O)N[C@@H](Cc2ccc3ccccc3c2)C(=O)NCC(=O)N1)C(N)=O [LY2510924] (FY[Lys(iPr)][dR][2Nal]G[dE][Lys(iPr)]-NH2; lactam N-7) — what was its IC50?
stdout: 1.37
